The entries below come with measured % CONVERSION values attached.
tested on: Protease XXIII: from Aspergillus oryzae (Enzyme A); experiment: Homogeneous aqueous enzymatic resolution (ester hydrolysis) with Enzyme A; conditions: 100 mg enzyme A, 10 mmol ester in 100 ml 0.2 M phosphate buffer pH 7.0, 20-22° C., 20 hours
MEASURED_PARAMETER: % CONVERSION (%)

INSERT INTO measurements (compound, quantitative_result) VALUES
  ('CC(C)Cc1ccc(C(C)C(=O)OCCCOS(=O)(=O)O)cc1 (stereo not drawn) [Compound 6]', 24.3),
  ('CC(C)Cc1ccc(C(C)C(=O)OCCS(=O)(=O)O)cc1 (stereo not drawn) [Compound 2]', 22.3),
  ('CC(C)Cc1ccc(C(C)C(=O)OCCCS(=O)(=O)O)cc1 (stereo not drawn) [Compound 3]', 50.0),
  ('CC(C)Cc1ccc(C(C)C(=O)OCCCCS(=O)(=O)O)cc1 (stereo not drawn) [Compound 4]', 43.2),
  ('CC(C)Cc1ccc(C(C)C(=O)OCS(=O)(=O)O)cc1 (stereo not drawn) [Compound 1]', 37.9),
  ('CC(C)Cc1ccc(C(C)C(=O)OCC[N+](C)(C)C)cc1 (stereo not drawn) [Compound 10]', 30.1);

* * *

# % e.e. per entry
system: Protease XXIII: from Aspergillus oryzae (Enzyme A); assay: Homogeneous aqueous enzymatic resolution (ester hydrolysis) with Enzyme A; conditions: acid product; 100 mg enzyme A, 10 mmol ester in 100 ml 0.2 M phosphate buffer pH 7.0, 20-22° C., 20 hours
MEASURED_PARAMETER: % e.e.

INSERT INTO assay_data (compound, result) VALUES
  ('CC(C)Cc1ccc(C(C)C(=O)OCC[N+](C)(C)C)cc1 (stereo not drawn) [Compound 10]', '> 99%'),
  ('CC(C)Cc1ccc(C(C)C(=O)OCCS(=O)(=O)O)cc1 (stereo not drawn) [Compound 2]', '93.3%'),
  ('CC(C)Cc1ccc(C(C)C(=O)OCCCS(=O)(=O)O)cc1 (stereo not drawn) [Compound 3]', '84.2%'),
  ('CC(C)Cc1ccc(C(C)C(=O)OCCCCS(=O)(=O)O)cc1 (stereo not drawn) [Compound 4]', '97.4%'),
  ('CC(C)Cc1ccc(C(C)C(=O)OCCCOS(=O)(=O)O)cc1 (stereo not drawn) [Compound 6]', '96.5%'),
  ('CC(C)Cc1ccc(C(C)C(=O)OCS(=O)(=O)O)cc1 (stereo not drawn) [Compound 1]', '> 99%');

Just for reference, patent US5057427A is where these values come from.
